Taken from ChEMBL document CHEMBL1145498.

Biological target: Tyrosine-protein kinase Fyn (Homo sapiens)
Sequence (P06241 whole entry): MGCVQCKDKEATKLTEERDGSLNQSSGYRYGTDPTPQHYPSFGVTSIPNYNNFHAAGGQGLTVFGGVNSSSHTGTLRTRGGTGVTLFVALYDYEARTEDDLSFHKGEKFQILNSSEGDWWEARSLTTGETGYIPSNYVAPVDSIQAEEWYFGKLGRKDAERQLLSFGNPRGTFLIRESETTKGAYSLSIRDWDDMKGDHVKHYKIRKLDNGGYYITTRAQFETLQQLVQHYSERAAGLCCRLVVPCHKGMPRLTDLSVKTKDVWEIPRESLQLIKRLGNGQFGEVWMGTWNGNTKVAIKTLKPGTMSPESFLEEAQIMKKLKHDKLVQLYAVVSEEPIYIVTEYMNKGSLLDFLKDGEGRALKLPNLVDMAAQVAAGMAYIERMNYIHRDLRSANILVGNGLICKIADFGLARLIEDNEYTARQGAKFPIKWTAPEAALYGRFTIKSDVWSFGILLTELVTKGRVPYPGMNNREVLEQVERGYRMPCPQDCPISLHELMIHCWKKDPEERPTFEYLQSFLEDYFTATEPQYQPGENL
pKi: −log10 of the molar value.
READOUT KIND: pKi

- CHEM SMILES: "O=C1N=C(NCc2cccs2)S/C1=C/c1ccc2ncccc2c1"
  READOUT KIND: "pKi"
  RESULT: "< 5.70"

###

Molecular target: Serine/threonine-protein kinase VRK3 (Homo sapiens) (UniProt Q8IV63)
Sequence (Q8IV63 whole entry): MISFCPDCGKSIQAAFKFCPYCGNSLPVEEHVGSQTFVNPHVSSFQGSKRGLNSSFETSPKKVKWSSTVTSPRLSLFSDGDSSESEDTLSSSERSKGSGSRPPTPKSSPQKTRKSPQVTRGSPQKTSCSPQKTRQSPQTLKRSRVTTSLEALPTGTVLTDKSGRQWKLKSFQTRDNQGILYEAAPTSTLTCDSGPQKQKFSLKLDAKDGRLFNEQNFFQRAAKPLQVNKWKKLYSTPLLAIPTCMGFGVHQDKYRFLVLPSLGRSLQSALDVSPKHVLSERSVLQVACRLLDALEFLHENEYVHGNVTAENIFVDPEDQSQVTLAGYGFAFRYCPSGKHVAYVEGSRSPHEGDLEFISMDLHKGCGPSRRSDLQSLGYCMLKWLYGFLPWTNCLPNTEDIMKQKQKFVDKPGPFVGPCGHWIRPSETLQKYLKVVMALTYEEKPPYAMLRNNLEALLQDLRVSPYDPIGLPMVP
Mark YES for reported ΔTm of -0.8 °C or greater; mark NO for anything smaller.

- COMPOUND: "COc1ccc(CNc2nc(N(CCO)CCO)nc3c2ncn3C(C)C)cc1"
  CATEGORY LABEL: "YES"
- COMPOUND: "O=c1c(-c2ccc(F)cc2)c(-c2ccncc2)[nH]n1-c1ccc(Cl)cc1"
  CATEGORY LABEL: "NO"
- COMPOUND: "O=C1NC(=O)c2c1c1c3ccccc3n3c1c1c2c2ccccc2n1C1CCC3O1"
  CATEGORY LABEL: "YES"
- COMPOUND: "Cl.Cn1cc(C2=C(c3ccc4cc5n(c4c3)CCC(CN)C5)C(=O)NC2=O)c2ccccc21 (stereo not given)"
  CATEGORY LABEL: "YES"

###

Molecular target: STE20-like serine/threonine-protein kinase (Homo sapiens) (UniProt Q9H2G2)
Sequence (Q9H2G2 whole entry, looked up): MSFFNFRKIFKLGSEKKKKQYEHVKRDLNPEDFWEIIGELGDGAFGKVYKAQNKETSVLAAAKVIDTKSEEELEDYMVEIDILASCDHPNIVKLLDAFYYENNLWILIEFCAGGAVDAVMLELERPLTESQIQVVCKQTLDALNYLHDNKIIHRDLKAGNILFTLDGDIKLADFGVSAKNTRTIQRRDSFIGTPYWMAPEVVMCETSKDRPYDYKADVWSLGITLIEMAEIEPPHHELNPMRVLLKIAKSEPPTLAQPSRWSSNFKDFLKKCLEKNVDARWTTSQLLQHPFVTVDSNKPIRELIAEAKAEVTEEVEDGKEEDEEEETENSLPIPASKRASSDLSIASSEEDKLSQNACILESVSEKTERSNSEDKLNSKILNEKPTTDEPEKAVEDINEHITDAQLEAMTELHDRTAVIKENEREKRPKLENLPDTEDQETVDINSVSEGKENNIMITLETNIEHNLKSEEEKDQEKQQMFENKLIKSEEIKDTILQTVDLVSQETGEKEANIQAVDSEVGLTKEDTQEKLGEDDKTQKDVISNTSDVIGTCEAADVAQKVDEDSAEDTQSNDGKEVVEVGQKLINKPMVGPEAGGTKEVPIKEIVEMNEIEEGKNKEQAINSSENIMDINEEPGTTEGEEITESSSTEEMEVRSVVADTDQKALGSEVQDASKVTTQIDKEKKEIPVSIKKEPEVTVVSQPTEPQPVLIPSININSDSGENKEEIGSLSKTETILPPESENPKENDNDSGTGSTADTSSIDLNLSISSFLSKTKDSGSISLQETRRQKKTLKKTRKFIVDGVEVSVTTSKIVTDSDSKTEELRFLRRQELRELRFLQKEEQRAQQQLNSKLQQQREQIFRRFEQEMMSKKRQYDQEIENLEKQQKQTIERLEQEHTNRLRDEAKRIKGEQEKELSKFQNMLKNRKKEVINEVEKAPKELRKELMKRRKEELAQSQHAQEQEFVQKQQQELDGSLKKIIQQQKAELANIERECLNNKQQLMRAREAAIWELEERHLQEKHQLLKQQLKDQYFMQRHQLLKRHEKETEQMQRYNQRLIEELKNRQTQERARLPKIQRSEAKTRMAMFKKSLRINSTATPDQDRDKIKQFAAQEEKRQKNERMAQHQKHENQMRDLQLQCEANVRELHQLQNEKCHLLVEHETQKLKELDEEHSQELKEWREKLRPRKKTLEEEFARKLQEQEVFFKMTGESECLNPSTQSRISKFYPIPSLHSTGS
Could you please classify the records by ΔTm using these ranges: group A: < 0.1 °C; group B: ≥ 0.1 °C and < 3 °C; group C: ≥ 3 °C

- MOLECULE: "O=C1C(Cl)=C(N2C(=O)CCC2=O)C(=O)c2ccccc21"
  CATEGORY LABEL: "group A"
- MOLECULE: "Cc1nc2sccn2c(=O)c1CCN1CCC(=C(c2ccccc2)c2ccc(F)cc2)CC1"
  CATEGORY LABEL: "group B"
- MOLECULE: "Nc1nc(Nc2ccc(S(N)(=O)=O)cc2)nn1C(=S)Nc1c(F)cccc1F"
  CATEGORY LABEL: "group C"
- MOLECULE: "COc1ccc(Cl)cc1NC(=O)Nc1cc(C)nc2ccccc12"
  CATEGORY LABEL: "group B"
- MOLECULE: "O=c1cc(N2CCOCC2)oc2c(-c3ccccc3)cccc12"
  CATEGORY LABEL: "group A"
- MOLECULE: "Nc1cc2ncnc(Nc3cccc(Br)c3)c2cc1N"
  CATEGORY LABEL: "group C"
- MOLECULE: "CN(C)CCCn1cc(C2=C(c3c[nH]c4ccccc34)C(=O)NC2=O)c2ccccc21"
  CATEGORY LABEL: "group C"
- MOLECULE: "O=c1c2ccccc2[nH]c(=S)n1CCN1CCC(=C(c2ccc(F)cc2)c2ccc(F)cc2)CC1"
  CATEGORY LABEL: "group B"
- MOLECULE: "CC(C)c1cc(/C=C(\\C#N)C(=O)NCCCc2ccccc2)cc(C(C)C)c1O"
  CATEGORY LABEL: "group B"
- MOLECULE: "COc1cc(/C=C/C(=O)CC(=O)/C=C/c2ccc(O)c(OC)c2)ccc1O"
  CATEGORY LABEL: "group C"
- MOLECULE: "O=c1c(-c2ccc(O)cc2)coc2cc(O)cc(O)c12"
  CATEGORY LABEL: "group B"
- MOLECULE: "Nc1ncnc2c1c(I)cn2[C@@H]1O[C@H](CO)[C@@H](O)[C@H]1O"
  CATEGORY LABEL: "group C"
- MOLECULE: "CCOc1cc2ncnc(Nc3cccc(Br)c3)c2cc1OCC"
  CATEGORY LABEL: "group C"
- MOLECULE: "NC(=O)c1ccc(-c2nc(-c3ccc4c(c3)OCCO4)c(-c3ccccn3)[nH]2)cc1"
  CATEGORY LABEL: "group A"
- MOLECULE: "COc1ccc(CNC(=O)Nc2ncc([N+](=O)[O-])s2)cc1"
  CATEGORY LABEL: "group B"
- MOLECULE: "COc1cc2ncnc(Nc3ccc(F)c(Cl)c3)c2cc1OCCCN1CCOCC1"
  CATEGORY LABEL: "group C"
- MOLECULE: "COc1ccc2c(c[n+](C)c3c4cc5c(cc4ccc23)OCO5)c1OC [CHELERYTHRINE CHLORIDE]"
  CATEGORY LABEL: "group A"
- MOLECULE: "Oc1cccc(-c2nc(N3CCOCC3)c3oc4ncccc4c3n2)c1"
  CATEGORY LABEL: "group B"

###

Target: Serine/threonine-protein kinase 38 (Homo sapiens) (UniProt Q15208)
Sequence (Q15208 2-465 limits assumed): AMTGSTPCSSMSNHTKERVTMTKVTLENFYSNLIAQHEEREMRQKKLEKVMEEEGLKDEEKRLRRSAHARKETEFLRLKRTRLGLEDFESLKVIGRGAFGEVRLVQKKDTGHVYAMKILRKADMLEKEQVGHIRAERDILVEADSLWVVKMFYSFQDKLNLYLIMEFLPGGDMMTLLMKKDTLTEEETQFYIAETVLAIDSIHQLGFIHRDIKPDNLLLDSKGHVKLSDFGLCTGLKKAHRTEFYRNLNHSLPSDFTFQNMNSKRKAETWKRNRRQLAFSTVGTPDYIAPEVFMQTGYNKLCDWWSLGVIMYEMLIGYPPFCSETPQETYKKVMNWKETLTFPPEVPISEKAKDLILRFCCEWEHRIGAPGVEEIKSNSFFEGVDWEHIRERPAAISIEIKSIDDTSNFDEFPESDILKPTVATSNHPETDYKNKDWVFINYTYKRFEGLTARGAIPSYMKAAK
This section presents compounds with their documented ΔTm values.

- CHEM SMILES: "C=CNC#N"
  SYSTEM UNDER TEST: "Serine/threonine-protein kinase 38 (Homo sapiens) (UniProt Q15208)"
  ΔTm (°C): 0.7
- CHEM SMILES: "Cc1[nH]c(/C=C2\\C(=O)Nc3ccc(S(=O)(=O)N(C)c4cccc(Cl)c4)cc32)c(C)c1C(=O)N1CCN(C)CC1"
  SYSTEM UNDER TEST: "Serine/threonine-protein kinase 38 (Homo sapiens) (UniProt Q15208)"
  ΔTm (°C): 4.2
- CHEM SMILES: "Cc1cc(C=C2C(=O)C=CC2=O)cc(C)c1O"
  SYSTEM UNDER TEST: "Serine/threonine-protein kinase 38 (Homo sapiens) (UniProt Q15208)"
  ΔTm (°C): 0.2
- CHEM SMILES: "COc1cc2ncnc(Nc3ccc(F)c(Cl)c3)c2cc1OCCCN1CCOCC1"
  SYSTEM UNDER TEST: "Serine/threonine-protein kinase 38 (Homo sapiens) (UniProt Q15208)"
  ΔTm (°C): 0.5
- CHEM SMILES: "CC(C)(C)c1cc(C=C2C(=O)C=CC2=O)cc(C(C)(C)C)c1O"
  SYSTEM UNDER TEST: "Serine/threonine-protein kinase 38 (Homo sapiens) (UniProt Q15208)"
  ΔTm (°C): 0.4
- CHEM SMILES: "Nc1ncnc2c1c(I)cn2[C@@H]1O[C@H](CO)[C@@H](O)[C@H]1O"
  SYSTEM UNDER TEST: "Serine/threonine-protein kinase 38 (Homo sapiens) (UniProt Q15208)"
  ΔTm (°C): 1.7
- CHEM SMILES: "O=C(Nc1cccc(Nc2cc(Nc3cccc(C(F)(F)F)c3)ncn2)c1)C1CC1"
  SYSTEM UNDER TEST: "Serine/threonine-protein kinase 38 (Homo sapiens) (UniProt Q15208)"
  ΔTm (°C): 1.5
- CHEM SMILES: "O=C1Nc2ccc(S(=O)(=O)O)cc2/C1=C1/Nc2ccccc2/C1=N\\O"
  SYSTEM UNDER TEST: "Serine/threonine-protein kinase 38 (Homo sapiens) (UniProt Q15208)"
  ΔTm (°C): 1.9
- CHEM SMILES: "O=C1Nc2ccccc2/C1=C\\c1ccc[nH]1"
  SYSTEM UNDER TEST: "Serine/threonine-protein kinase 38 (Homo sapiens) (UniProt Q15208)"
  ΔTm (°C): 2.7
- CHEM SMILES: "O=c1ccc2ccc(O)c(O)c2o1"
  SYSTEM UNDER TEST: "Serine/threonine-protein kinase 38 (Homo sapiens) (UniProt Q15208)"
  ΔTm (°C): 0.3
- CHEM SMILES: "N#C/C(=C\\c1ccc(O)c(O)c1)C(=O)Nc1ccccc1"
  SYSTEM UNDER TEST: "Serine/threonine-protein kinase 38 (Homo sapiens) (UniProt Q15208)"
  ΔTm (°C): 0

###

Biological target: Serine/threonine-protein kinase 17A (Homo sapiens)

- MOLECULE: "COc1cc(OC)c(/C=C2\\C(=O)Nc3ccccc32)c(OC)c1"
  SYSTEM UNDER TEST: "Serine/threonine-protein kinase 17A (Homo sapiens)"
  UNIT SPEC: "°C"
  ΔTm: -0.3
- MOLECULE: "CN(C)CC1CCn2c(c(C3=C(c4c[nH]c5ccccc45)C(=O)NC3=O)c3ccccc32)C1 (stereo unspecified)"
  SYSTEM UNDER TEST: "Serine/threonine-protein kinase 17A (Homo sapiens)"
  UNIT SPEC: "°C"
  ΔTm: 5.3
- MOLECULE: "COC(=O)[C@]1(O)C[C@@H]2O[C@@]1(C)n1c3ccccc3c3c4c(c5c6ccccc6n2c5c31)C(=O)NC4 (single isomer, unassigned)"
  SYSTEM UNDER TEST: "Serine/threonine-protein kinase 17A (Homo sapiens)"
  UNIT SPEC: "°C"
  ΔTm: 17.5
- MOLECULE: "O=c1c2ccccc2[nH]c(=S)n1CCN1CCC(=C(c2ccc(F)cc2)c2ccc(F)cc2)CC1"
  SYSTEM UNDER TEST: "Serine/threonine-protein kinase 17A (Homo sapiens)"
  UNIT SPEC: "°C"
  ΔTm: 0.5
- MOLECULE: "COc1cc2ncnc(Nc3cccc(O)c3)c2cc1OC"
  SYSTEM UNDER TEST: "Serine/threonine-protein kinase 17A (Homo sapiens)"
  UNIT SPEC: "°C"
  ΔTm: 3.7
- MOLECULE: "C/C(O)=C(\\C#N)C(=O)Nc1cc(Br)ccc1Br"
  SYSTEM UNDER TEST: "Serine/threonine-protein kinase 17A (Homo sapiens)"
  UNIT SPEC: "°C"
  ΔTm: 0.6
- MOLECULE: "O=C1C=C2C(=Nc3c2c2c(c4c3=NC3=C4CCC=C3)C=NC=2)CC1"
  SYSTEM UNDER TEST: "Serine/threonine-protein kinase 17A (Homo sapiens)"
  UNIT SPEC: "°C"
  ΔTm: 2.6
- MOLECULE: "COc1ccc2c(c1)/C(=C/c1cnc[nH]1)C(=O)N2"
  SYSTEM UNDER TEST: "Serine/threonine-protein kinase 17A (Homo sapiens)"
  UNIT SPEC: "°C"
  ΔTm: 9.8
- MOLECULE: "Nc1ncnc2c1c(I)cn2[C@@H]1O[C@H](CO)[C@@H](O)[C@H]1O"
  SYSTEM UNDER TEST: "Serine/threonine-protein kinase 17A (Homo sapiens)"
  UNIT SPEC: "°C"
  ΔTm: 2.8
- MOLECULE: "Cc1cc2ncc(-c3ccccc3)nc2cc1C"
  SYSTEM UNDER TEST: "Serine/threonine-protein kinase 17A (Homo sapiens)"
  UNIT SPEC: "°C"
  ΔTm: 1.5
- MOLECULE: "CCOC(=O)c1cnc2oc3ccc(O)cc3c2c1-c1ccccc1"
  SYSTEM UNDER TEST: "Serine/threonine-protein kinase 17A (Homo sapiens)"
  UNIT SPEC: "°C"
  ΔTm: 2
- MOLECULE: "CN(C)c1ncnc2nc[nH]c12"
  SYSTEM UNDER TEST: "Serine/threonine-protein kinase 17A (Homo sapiens)"
  UNIT SPEC: "°C"
  ΔTm: 1.5
- MOLECULE: "Cn1cc(/C=C2/C(=O)Nc3ccc(S(N)(=O)=O)cc32)c2ccccc21"
  SYSTEM UNDER TEST: "Serine/threonine-protein kinase 17A (Homo sapiens)"
  UNIT SPEC: "°C"
  ΔTm: 6.1
- MOLECULE: "O=C(Nc1cccc(Nc2cc(Nc3cccc(C(F)(F)F)c3)ncn2)c1)C1CC1"
  SYSTEM UNDER TEST: "Serine/threonine-protein kinase 17A (Homo sapiens)"
  UNIT SPEC: "°C"
  ΔTm: 1.5
- MOLECULE: "O=c1ccc2ccc(O)c(O)c2o1"
  SYSTEM UNDER TEST: "Serine/threonine-protein kinase 17A (Homo sapiens)"
  UNIT SPEC: "°C"
  ΔTm: 0.4
- MOLECULE: "O=c1cc(N2CCOCC2)oc2c(-c3ccccc3)cccc12"
  SYSTEM UNDER TEST: "Serine/threonine-protein kinase 17A (Homo sapiens)"
  UNIT SPEC: "°C"
  ΔTm: 1
- MOLECULE: "O=C1Nc2ccc(I)cc2/C1=C1/Nc2ccccc2/C1=N\\O"
  SYSTEM UNDER TEST: "Serine/threonine-protein kinase 17A (Homo sapiens)"
  UNIT SPEC: "°C"
  ΔTm: 7
- MOLECULE: "N#CCCc1ccc2c(c1)-c1[nH]c3ccc([N+](=O)[O-])cc3c1CC(=O)N2"
  SYSTEM UNDER TEST: "Serine/threonine-protein kinase 17A (Homo sapiens)"
  UNIT SPEC: "°C"
  ΔTm: 9.6
- MOLECULE: "C=CNC#N"
  SYSTEM UNDER TEST: "Serine/threonine-protein kinase 17A (Homo sapiens)"
  UNIT SPEC: "°C"
  ΔTm: 0.7
- MOLECULE: "Cc1cc(C=C2C(=O)C=CC2=O)cc(C)c1O"
  SYSTEM UNDER TEST: "Serine/threonine-protein kinase 17A (Homo sapiens)"
  UNIT SPEC: "°C"
  ΔTm: -4.6
- MOLECULE: "O=C1NC(=O)C(c2c[nH]c3ccccc23)=C1c1c[nH]c2ccccc12"
  SYSTEM UNDER TEST: "Serine/threonine-protein kinase 17A (Homo sapiens)"
  UNIT SPEC: "°C"
  ΔTm: 2.9
